FYI, the data here is from patent US20200377483A1.

# assayProtocol: Solubility in biorelevant media
# Assay type: physicochemical
# cond: fed state simulated intestinal fluid (FeSSIF-V2), 37 °C, fessif, thermodynamic from solid, FeSSIF-V2, 37° C., 5 hours; read-out: Conc. (solubility)
observable: solubility at 5 h (µg/mL)
Numbers only, in µg/mL.

Find the recorded solubility at 5 h belonging to c1cc([C@H]2CC[C@]3(CC2)OO[C@]2(O3)C3CC4CC(C3)CC2C4)ccc1OCCN1CCOCC1 [Compound C1, reference compound] and report it.
557

* * *

# assayProtocol: Solubility in biorelevant media
# Type: physicochemical
# cond: fasted state simulated intestinal fluid (FaSSIF-V2), 37 °C, fassif, thermodynamic from solid, FaSSIF-V2, 37° C., 5 hours; read-out: Conc. (solubility)
observable: solubility at 5 h (µg/mL)
Answers are plain numbers, in µg/mL.

Find the recorded solubility at 5 h belonging to c1cc([C@H]2CC[C@]3(CC2)OO[C@]2(O3)C3CC4CC(C3)CC2C4)ccc1OCCN1CCOCC1 [Compound C1, reference compound] and report it.
22.3

* * *

# assayProtocol: Solubility in biorelevant media
# Format: physicochemical
# cond: fasted state simulated gastric fluid (FaSSGF), 37 °C, fassgf or other biorelevant, thermodynamic from solid, FaSSGF, 37° C., 1 hour; read-out: Conc. (solubility)
observable: solubility at 1 h (µg/mL)
Numbers only, in µg/mL.

Find the recorded solubility at 1 h belonging to c1cc([C@H]2CC[C@]3(CC2)OO[C@]2(O3)C3CC4CC(C3)CC2C4)ccc1OCCN1CCOCC1 [Compound C1, reference compound] and report it.
51.9
